target: CYP2C9 (Homo sapiens, UniProt P11712); construct: a human liver microsome solution containing three CYP-specific substrates; from tissue; host or cells: human liver microsomes; assay: CYP inhibition test (2): 50% inhibitory concentration from 3 concentrations, CYP2C9; type: in vitro ADME; details: human liver microsomes, pH 7.4, probe diclofenac (0.005 mmol/L); human liver microsome, diclofenac substrate, 0.01, 0.03 and 0.1 mmol/L; read-out: 50% inhibitory concentration, 2C9
Sequence (P11712 whole entry): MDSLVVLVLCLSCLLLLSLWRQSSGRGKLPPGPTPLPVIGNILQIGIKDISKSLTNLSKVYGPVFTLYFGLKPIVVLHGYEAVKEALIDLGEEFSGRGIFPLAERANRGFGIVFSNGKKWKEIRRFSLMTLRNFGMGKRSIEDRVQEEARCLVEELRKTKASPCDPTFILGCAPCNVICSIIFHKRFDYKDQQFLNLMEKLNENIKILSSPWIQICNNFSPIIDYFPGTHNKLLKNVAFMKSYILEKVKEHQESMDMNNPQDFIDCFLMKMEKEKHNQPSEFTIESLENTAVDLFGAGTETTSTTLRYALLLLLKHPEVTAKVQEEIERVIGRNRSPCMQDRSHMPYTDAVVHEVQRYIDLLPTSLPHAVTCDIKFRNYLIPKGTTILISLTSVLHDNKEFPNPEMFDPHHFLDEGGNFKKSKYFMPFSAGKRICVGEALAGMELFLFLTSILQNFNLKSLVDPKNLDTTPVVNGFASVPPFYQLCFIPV
attribute measured: IC50 at 10 min

1) CC1(C)CN(c2cc(F)c(OCCO)c(F)c2)[C@H]2CCCC[C@H]2N1 : 100 µM

---

target: serotonin (5-HT) uptake (Rattus norvegicus); construct: used as crude synaptosomal fraction; from tissue; host or cells: rat frontal cortex, crude synaptosomal fraction; assay: Serotonin (5-HT) uptake inhibitory activity in rat brain synaptosome; assay type: biochemical; details: rat frontal cortex synaptosome, tritium-labeled 5-HT 8 nM; read-out: IC50 (nM), serotonin (5-HT) uptake inhibition
Sequence (P31652 whole entry): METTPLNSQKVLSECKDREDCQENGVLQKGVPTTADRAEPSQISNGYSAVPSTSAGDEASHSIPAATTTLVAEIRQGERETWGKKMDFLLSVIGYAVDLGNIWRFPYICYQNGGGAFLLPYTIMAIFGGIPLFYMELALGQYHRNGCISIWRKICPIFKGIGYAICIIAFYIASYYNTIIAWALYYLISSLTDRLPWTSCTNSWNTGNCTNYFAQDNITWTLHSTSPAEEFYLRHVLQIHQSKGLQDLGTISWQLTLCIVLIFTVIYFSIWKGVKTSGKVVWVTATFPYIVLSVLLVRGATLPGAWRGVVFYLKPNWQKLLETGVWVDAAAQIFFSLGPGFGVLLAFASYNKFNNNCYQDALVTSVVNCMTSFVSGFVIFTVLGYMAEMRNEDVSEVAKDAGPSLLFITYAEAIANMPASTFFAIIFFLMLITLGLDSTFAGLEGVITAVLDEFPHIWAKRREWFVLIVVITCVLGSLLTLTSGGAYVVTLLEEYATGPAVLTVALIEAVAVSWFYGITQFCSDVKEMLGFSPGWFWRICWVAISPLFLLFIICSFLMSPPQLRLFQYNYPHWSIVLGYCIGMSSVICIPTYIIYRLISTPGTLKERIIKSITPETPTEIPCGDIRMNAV
IC50 for assorted molecules
attribute measured: IC50 (nM)

1. CC1(C)CN(c2cc(Br)c(OCCO)cc2F)[C@H]2CCCC[C@H]2N1 : 8.6
2. CC1(C)CN(c2ccc(OCCO)c3occc23)[C@@H]2CCCC[C@@H]2N1 : 7.7
3. CC1(C)CN(c2ccc(OC(F)(F)CO)cc2)[C@H]2CCCC[C@@H]2N1 : 4.7
4. CC1(C)CN(c2cc(Cl)c(OC(F)(F)CO)cc2F)[C@H]2CCCC[C@@H]2N1 : 9.4
5. Cc1c(OC(F)(F)CO)ccc(N2CC(C)(C)N[C@H]3CCCC[C@H]32)c1F : 5.7
6. OCCOc1c(F)cc(N2CC3(CCC3)N[C@H]3CCCC[C@@H]32)cc1Cl : 6.1
7. CC1(C)CN(c2ccc(OCCO)cc2Cl)[C@H]2CCCC[C@H]2N1 : 8.8
8. C[C@@H]1CN(c2ccc(OC(F)(F)CO)c(Cl)c2)[C@H]2CCCC[C@@H]2N1 : 62.7
9. CN1[C@H]2CCCC[C@@H]2N(c2ccc(OC(F)(F)CO)cc2)CC1(C)C : 87.4

---

inhibition at 10 min, 0.01 mmol/L for assorted compounds
target: CYP3A4 (Homo sapiens); construct: a human liver microsome solution containing three CYP-specific substrates; from tissue; host or cells: human liver microsomes; assay: CYP inhibition test (1): inhibition rate (%) at one concentration, CYP3A4; format: in vitro ADME; details: human liver microsomes, pH 7.4, probe midazolam (0.005 mmol/L); test compound 0.01 mmol/L, human liver microsome 0.1 mg/mL, substrate midazolam, 37° C. 10 minutes; read-out: inhibition rate (%) 3A4
Sequence (P08684 whole entry): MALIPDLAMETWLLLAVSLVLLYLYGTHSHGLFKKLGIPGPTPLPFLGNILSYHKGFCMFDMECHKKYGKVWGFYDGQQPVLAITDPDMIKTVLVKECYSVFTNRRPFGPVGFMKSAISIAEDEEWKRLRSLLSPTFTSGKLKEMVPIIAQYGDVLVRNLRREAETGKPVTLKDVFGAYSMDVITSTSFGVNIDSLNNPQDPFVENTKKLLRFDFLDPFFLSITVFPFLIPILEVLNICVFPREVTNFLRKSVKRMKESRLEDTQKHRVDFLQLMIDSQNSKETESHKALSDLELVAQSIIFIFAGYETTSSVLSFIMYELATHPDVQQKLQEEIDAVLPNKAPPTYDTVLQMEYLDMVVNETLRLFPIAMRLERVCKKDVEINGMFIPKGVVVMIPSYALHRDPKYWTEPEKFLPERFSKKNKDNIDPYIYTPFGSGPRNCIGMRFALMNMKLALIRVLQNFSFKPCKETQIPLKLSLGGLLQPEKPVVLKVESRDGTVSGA
attribute measured: inhibition at 10 min, 0.01 mmol/L (%)

1. OCCOc1ccc(N2CC3(CCC3)N[C@H]3CCCC[C@@H]32)cc1 : 7.1
2. Cc1c(N2CC(C)(C)N[C@@H]3CCCC[C@@H]32)ccc(OC(F)(F)CO)c1F : 8.6
3. CC1(C)CN(c2ccc(OCCO)c(Cl)c2)[C@H]2CCCC[C@H]2N1 : -10.7
4. CC1(C)CN(c2cc(Cl)c(OC(F)(F)CO)cc2F)[C@@H]2CCCC[C@H]2N1 : 12.4
5. CC1(C)CN(c2cc(F)c(OC(F)(F)CO)cc2F)[C@H]2CCCC[C@@H]2N1 : -1.9
6. Cc1cc(N2CC(C)(C)N[C@@H]3CCCC[C@@H]32)cc(F)c1OC(F)(F)CO : 13.1
7. C[C@@H]1CN(c2ccc(OC(F)(F)CO)c(Cl)c2)[C@H]2CCCC[C@@H]2N1 : 16.1
8. COc1cc(N2CC3(CCC3)N[C@H]3CCCC[C@@H]32)ccc1OCCO : -1.3
9. Cc1c(OC(F)(F)CO)ccc(N2CC(C)(C)N[C@@H]3CCCC[C@@H]32)c1F : 17.6
10. CC1(C)CN(c2ccc(OCCO)c3occc23)[C@H]2CCCC[C@H]2N1 : 1.1
11. CC1(C)CN(c2cc(Br)c(OCCO)cc2F)[C@H]2CCCC[C@H]2N1 : -1.6
12. Cc1c(OC(F)(F)CO)ccc(N2CC(C)(C)N[C@H]3CCCC[C@H]32)c1F : 19.7
13. CC1(C)CN(c2ccc(OC(F)(F)CO)c(F)c2F)[C@H]2CCCC[C@H]2N1 : 5.9
14. CC1(C)CN(c2cc(Cl)c(OC(F)(F)CO)cc2F)[C@H]2CCCC[C@@H]2N1 : 9.9
15. CC1(C)CN(c2ccc(OCCO)c(Br)c2F)[C@H]2CCCC[C@H]2N1 : 6.1
16. Cc1c(OC(F)(F)CO)ccc(N2CC(C)(C)N[C@H]3CCCC[C@@H]32)c1F : 17.1
17. Cc1cc(N2CC3(CCC3)N[C@H]3CCCC[C@@H]32)cc(F)c1OCCO : 14.4
18. CC1(C)CN(c2ccc(OCCO)c3occc23)[C@@H]2CCCC[C@@H]2N1 : 2

---

target: dopamine (DA) uptake (Rattus norvegicus, UniProt P23977); construct: used as crude synaptosomal fraction; from tissue; host or cells: rat striatum, crude synaptosomal fraction; test: Dopamine (DA) uptake inhibitory activity using rat brain synaptosome; type: biochemical; settings: rat striatum synaptosome, tritium-labeled DA 2 nM; read-out: IC50 (nM), dopamine (DA) uptake inhibition
Sequence (P23977 whole entry): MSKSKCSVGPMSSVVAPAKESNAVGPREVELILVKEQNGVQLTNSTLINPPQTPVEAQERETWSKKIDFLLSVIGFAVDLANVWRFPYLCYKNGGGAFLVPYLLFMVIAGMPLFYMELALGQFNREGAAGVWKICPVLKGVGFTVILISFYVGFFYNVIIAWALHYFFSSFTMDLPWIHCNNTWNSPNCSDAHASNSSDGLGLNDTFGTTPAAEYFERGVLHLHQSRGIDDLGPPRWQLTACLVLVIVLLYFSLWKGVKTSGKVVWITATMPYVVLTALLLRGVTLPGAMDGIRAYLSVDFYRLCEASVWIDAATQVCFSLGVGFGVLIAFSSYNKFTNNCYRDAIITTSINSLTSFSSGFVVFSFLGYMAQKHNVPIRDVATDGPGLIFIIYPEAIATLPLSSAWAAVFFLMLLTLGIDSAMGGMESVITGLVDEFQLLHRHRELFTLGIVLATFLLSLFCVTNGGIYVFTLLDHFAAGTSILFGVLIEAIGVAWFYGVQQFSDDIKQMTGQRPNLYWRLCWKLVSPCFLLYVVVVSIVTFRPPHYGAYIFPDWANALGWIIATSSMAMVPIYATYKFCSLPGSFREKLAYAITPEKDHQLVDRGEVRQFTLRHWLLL
attribute measured: IC50 (nM)

1. CC1(C)CN(c2ccc(OC(F)(F)CO)c(Cl)c2F)[C@@H]2CCCC[C@H]2N1 : 90
2. CC1(C)CN(c2cc(Cl)c(OC(F)(F)CO)cc2F)[C@@H]2CCCC[C@H]2N1 : 60.5
3. Cc1cc(N2CC(C)(C)N[C@@H]3CCCC[C@H]32)ccc1OC(F)(F)CO : 60.7
4. C[C@@H]1CN(c2cc(F)c(OCCO)c(Cl)c2)[C@H]2CCCC[C@@H]2N1 : 7.6

---

biological target: CYP2D6 (Homo sapiens, UniProt P10635); construct: a human liver microsome solution containing three CYP-specific substrates; from tissue; host or cells: human liver microsomes; test: CYP inhibition test (1): inhibition rate (%) at one concentration, CYP2D6; type: in vitro ADME; conditions: human liver microsomes, pH 7.4, probe bufuralol (0.01 mmol/L); test compound 0.01 mmol/L, human liver microsome 0.1 mg/mL, substrate bufuralol, 37° C. 10 minutes; read-out: inhibition rate (%) 2D6
Sequence (P10635 whole entry): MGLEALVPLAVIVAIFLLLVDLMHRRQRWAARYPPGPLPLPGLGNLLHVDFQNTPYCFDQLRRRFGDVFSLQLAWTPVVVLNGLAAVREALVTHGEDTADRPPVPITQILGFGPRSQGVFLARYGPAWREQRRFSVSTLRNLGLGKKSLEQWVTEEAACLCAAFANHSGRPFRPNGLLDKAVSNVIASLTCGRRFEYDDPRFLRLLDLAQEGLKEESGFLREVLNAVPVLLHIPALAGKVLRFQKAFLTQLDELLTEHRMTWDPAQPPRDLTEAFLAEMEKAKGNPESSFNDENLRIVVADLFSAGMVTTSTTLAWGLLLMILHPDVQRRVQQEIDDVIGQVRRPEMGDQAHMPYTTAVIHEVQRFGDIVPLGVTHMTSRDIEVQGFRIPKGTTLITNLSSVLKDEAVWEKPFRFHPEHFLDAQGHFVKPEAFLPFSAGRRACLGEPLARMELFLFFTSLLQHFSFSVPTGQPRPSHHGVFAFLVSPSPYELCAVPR
attribute measured: inhibition at 10 min, 0.01 mmol/L (%)

1. Cc1c(OC(F)(F)CO)ccc(N2CC(C)(C)N[C@H]3CCCC[C@@H]32)c1F : 38.8
2. OCCOc1ccc(N2CC3(CCC3)N[C@H]3CCCC[C@@H]32)cc1 : 20.1
3. Cc1cc(N2CC(C)(C)N[C@@H]3CCCC[C@@H]32)ccc1OC(F)(F)CO : -7.8
4. CC1(C)CN(c2cc(Br)c(OCCO)cc2F)[C@H]2CCCC[C@H]2N1 : 17.8
5. CC1(C)CN(c2cc(F)c(OC(F)(F)CO)cc2F)[C@H]2CCCC[C@@H]2N1 : 18.1
6. CC1(C)CN(c2cc(F)c(OCCO)cc2F)[C@H]2CCCC[C@H]2N1 : 17.9
7. Cc1c(OC(F)(F)CO)ccc(N2CC(C)(C)N[C@@H]3CCCC[C@@H]32)c1F : 28.4
8. Cc1c(N2CC(C)(C)N[C@@H]3CCCC[C@@H]32)ccc(OC(F)(F)CO)c1F : 14.9
9. CC1(C)CN(c2ccc(OCCO)c(Cl)c2)[C@H]2CCCC[C@H]2N1 : 10.2
10. CC1(C)CN(c2ccc(OCCO)c(F)c2)[C@H]2CCCC[C@H]2N1 : 23

---

molecular target: norepinephrine (NE) uptake (Rattus norvegicus, UniProt Q63380); construct: used as crude synaptosomal fraction; from tissue; host or cells: rat hippocampus, crude synaptosomal fraction; test: Norepinephrine (NE) uptake inhibitory activity using rat brain synaptosome; format: biochemical; conditions: rat hippocampus synaptosome, tritium-labeled NE 12 nM; read-out: IC50 (nM), norepinephrine (NE) uptake inhibition
Sequence (Q63380 1-617): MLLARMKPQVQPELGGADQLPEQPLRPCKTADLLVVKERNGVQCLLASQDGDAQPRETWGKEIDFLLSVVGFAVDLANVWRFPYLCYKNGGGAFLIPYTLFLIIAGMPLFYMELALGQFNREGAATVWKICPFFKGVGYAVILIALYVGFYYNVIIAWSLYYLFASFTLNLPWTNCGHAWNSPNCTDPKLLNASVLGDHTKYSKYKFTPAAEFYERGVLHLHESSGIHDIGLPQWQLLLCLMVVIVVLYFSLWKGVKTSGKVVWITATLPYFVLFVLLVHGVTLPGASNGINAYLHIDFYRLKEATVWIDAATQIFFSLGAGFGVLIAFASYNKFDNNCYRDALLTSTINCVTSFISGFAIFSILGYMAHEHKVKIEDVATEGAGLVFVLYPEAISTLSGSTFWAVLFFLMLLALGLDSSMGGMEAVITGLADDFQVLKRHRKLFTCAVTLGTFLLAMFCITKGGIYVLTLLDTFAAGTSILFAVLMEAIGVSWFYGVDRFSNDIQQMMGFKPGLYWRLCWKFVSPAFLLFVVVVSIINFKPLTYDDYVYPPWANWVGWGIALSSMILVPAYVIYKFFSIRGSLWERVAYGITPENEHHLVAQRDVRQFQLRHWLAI
Lab note - cut at 7 nM for IC50: label 1 if strictly below, label 0 if not.

1) CC1(C)CN(c2ccc(OC(F)(F)CO)cc2)[C@@H]2CCCC[C@H]2N1 : label 0
2) C[C@@H]1CN(c2ccc(OC(F)(F)CO)c(Cl)c2)[C@H]2CCCC[C@@H]2N1 : label 1
3) CC1(C)CN(c2cc(F)c(OCCO)cc2F)[C@H]2CCCC[C@H]2N1 : label 0
4) CC1(C)CN(c2ccc(OCCO)c(F)c2)[C@H]2CCCC[C@H]2N1 : label 0
5) CC1(C)CN(c2ccc(OCCO)c(Cl)c2)[C@H]2CCCC[C@@H]2N1 : label 0
6) Cc1c(OC(F)(F)CO)ccc(N2CC(C)(C)N[C@H]3CCCC[C@H]32)c1F : label 1
7) CC1(C)CN(c2cc(F)c(OCCO)c(F)c2)[C@H]2CCCC[C@H]2N1 : label 1
8) CC1(C)CN(c2ccc(OC(F)(F)CO)c(F)c2F)[C@H]2CCCC[C@H]2N1 : label 1
9) CC1(C)CN(c2ccc(OCCO)c3occc23)[C@@H]2CCCC[C@@H]2N1 : label 1
10) CC1(C)CN(c2ccc(OCCO)c(Br)c2F)[C@H]2CCCC[C@H]2N1 : label 1
11) Cc1c(N2CC(C)(C)N[C@@H]3CCCC[C@@H]32)ccc(OC(F)(F)CO)c1F : label 1
12) CC1(C)CN(c2ccc(OC(F)(F)CO)c(Cl)c2F)[C@@H]2CCCC[C@H]2N1 : label 0
13) COc1cc(N2CC(C)(C)N[C@H]3CCCC[C@@H]32)ccc1OC(F)(F)CO : label 0
14) CN1[C@H]2CCCC[C@@H]2N(c2ccc(OC(F)(F)CO)cc2)CC1(C)C : label 0
15) CC1(C)CN(c2ccc(OC(F)(F)CO)cc2F)[C@H]2CCCC[C@H]2N1 : label 1
16) CC1(C)CN(c2cc(Cl)c(OC(F)(F)CO)cc2F)[C@H]2CCCC[C@@H]2N1 : label 0
17) CC1(C)CN(c2cc(Cl)c(OC(F)(F)CO)cc2F)[C@@H]2CCCC[C@H]2N1 : label 0
18) C[C@@H]1CN(c2cc(F)c(OCCO)c(Cl)c2)[C@H]2CCCC[C@@H]2N1 : label 1
19) Cc1cc(N2CC(C)(C)N[C@@H]3CCCC[C@H]32)ccc1OC(F)(F)CO : label 0
20) OCCOc1ccc(N2CC3(CCC3)N[C@H]3CCCC[C@@H]32)cc1 : label 0
21) Cc1c(OC(F)(F)CO)ccc(N2CC(C)(C)N[C@@H]3CCCC[C@@H]32)c1F : label 1
22) CC1(C)CN(c2ccc(OCCO)cc2Cl)[C@H]2CCCC[C@H]2N1 : label 1
23) CC1(C)CN(c2cc(F)c(OCCO)c(F)c2)[C@H]2CCCC[C@@H]2N1 : label 1
24) Cc1c(OC(F)(F)CO)ccc(N2CC(C)(C)N[C@H]3CCCC[C@@H]32)c1F : label 1
25) C[C@H]1CN(c2cc(F)c(OCCO)c(Cl)c2)[C@H]2CCCC[C@H]2N1 : label 0
26) CC1(C)CN(c2cc(F)c(OC(F)(F)CO)cc2F)[C@H]2CCCC[C@H]2N1 : label 1
27) OCCOc1c(F)cc(N2CC3(CCC3)N[C@H]3CCCC[C@@H]32)cc1Cl : label 0
28) Cc1cc(N2CC(C)(C)N[C@@H]3CCCC[C@@H]32)ccc1OC(F)(F)CO : label 1
29) Cc1cc(N2CC(C)(C)N[C@@H]3CCCC[C@@H]32)cc(F)c1OC(F)(F)CO : label 1
30) CC1(C)CN(c2ccc(OCCO)c(Cl)c2)[C@H]2CCCC[C@H]2N1 : label 1
31) COc1cc(N2CC3(CCC3)N[C@H]3CCCC[C@@H]32)ccc1OCCO : label 0
32) CC1(C)CN(c2ccc(OCCO)c3occc23)[C@H]2CCCC[C@H]2N1 : label 1
33) CC1(C)CN(c2ccc(OC(F)(F)CO)cc2)[C@H]2CCCC[C@@H]2N1 : label 1
